// data source = patent US20070149535A1

- TARGET_DESC: EphA2 (Homo sapiens)
- Construct: expressed in transfected cells; host or cells: yeast
- Sequence (P29317 24-976): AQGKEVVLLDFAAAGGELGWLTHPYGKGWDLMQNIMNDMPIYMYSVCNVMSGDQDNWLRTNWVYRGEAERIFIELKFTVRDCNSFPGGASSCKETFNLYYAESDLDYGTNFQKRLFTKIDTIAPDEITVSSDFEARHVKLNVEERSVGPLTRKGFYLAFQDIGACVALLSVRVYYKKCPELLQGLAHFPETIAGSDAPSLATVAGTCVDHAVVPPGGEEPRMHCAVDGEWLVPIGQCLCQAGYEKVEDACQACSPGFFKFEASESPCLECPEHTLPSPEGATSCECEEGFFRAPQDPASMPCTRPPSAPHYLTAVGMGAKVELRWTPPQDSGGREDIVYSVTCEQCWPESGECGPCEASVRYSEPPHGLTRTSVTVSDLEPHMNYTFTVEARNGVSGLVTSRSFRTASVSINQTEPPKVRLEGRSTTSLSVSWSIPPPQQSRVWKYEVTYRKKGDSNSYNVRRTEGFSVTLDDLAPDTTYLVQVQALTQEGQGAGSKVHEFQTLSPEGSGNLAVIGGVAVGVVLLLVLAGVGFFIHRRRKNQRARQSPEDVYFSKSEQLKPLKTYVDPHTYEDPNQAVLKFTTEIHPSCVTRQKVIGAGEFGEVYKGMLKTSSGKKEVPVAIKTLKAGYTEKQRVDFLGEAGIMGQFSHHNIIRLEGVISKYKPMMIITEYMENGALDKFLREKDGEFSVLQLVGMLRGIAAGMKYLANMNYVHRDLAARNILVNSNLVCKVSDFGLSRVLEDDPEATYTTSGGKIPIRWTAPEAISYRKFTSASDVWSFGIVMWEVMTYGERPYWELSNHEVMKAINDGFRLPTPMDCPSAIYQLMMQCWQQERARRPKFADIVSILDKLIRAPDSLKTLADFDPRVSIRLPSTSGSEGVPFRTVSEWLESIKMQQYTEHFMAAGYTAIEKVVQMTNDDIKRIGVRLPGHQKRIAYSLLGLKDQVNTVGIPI
- ASSAY_NOTES: Yeast growth assay, specificity profiling
- Assay type: cell-based
- Design: key: “−” indicates no growth restoration i.e. no activity against the particular kinase; “+”, “++”, and “+++” indicate activity detected by restoration of growth, classified into three categories of potency; “+”, “++”, and “+++” indicate activity detected by restoration of growth, classified into three categories of potency; “+”, “++”, and “+++” indicate activity detected by restoration of growth, classified into three categories of potency
- CONDITION_DETAILS: 7 concentrations between 0.2 and 100 μM
VALUE_KIND: EphA2 growth restoration

Solved cases (5 shown):
| COMPOUND | EphA2 growth restoration |
| --- | --- |
| Clc1ccc(Nc2c(-c3ccccc3)nc3cnccn23)cc1 [compound 16] | − |
| CC(=O)Nc1ccc(-c2nc3c(C)nccn3c2Nc2cccc(Cl)c2)cc1 [compound 33] | + |
| Cc1cccc(Nc2c(-c3ccccc3)nc3cnccn23)c1 [compound 34] | − |
| Brc1cccc(Nc2c(-c3ccccc3)nc3cnccn23)c1 [compound 14] | − |
| Cc1cccc(Nc2c(-c3ccccc3)nc3c(C)nccn23)c1 [compound 43] | − |

stdin: Item: Cc1nccn2c(Nc3ccccc3)c(-c3ccccc3)nc12 [compound 39] Test system: EphA2 (Homo sapiens) Read-out: EphA2 growth restoration Value: ?
stdout: +

stdin: Item: COc1cccc(-c2nc3c(C)nccn3c2Nc2cccc(C)c2)c1 [compound 42] Test system: EphA2 (Homo sapiens) Read-out: EphA2 growth restoration Value: ?
stdout: +

stdin: Item: Fc1ccc(Nc2c(-c3ccccc3)nc3cnccn23)cc1F [compound 30] Test system: EphA2 (Homo sapiens) Read-out: EphA2 growth restoration Value: ?
stdout: −

stdin: Item: Cc1nccn2c(Nc3ccc(F)c(F)c3)c(-c3ccccc3)nc12 [compound 45] Test system: EphA2 (Homo sapiens) Read-out: EphA2 growth restoration Value: ?
stdout: −

* * *

- TARGET_DESC: PDGFRb (Homo sapiens, UniProt P09619)
- Construct: expressed in transfected cells; host or cells: yeast
- Sequence (P09619 33-1106): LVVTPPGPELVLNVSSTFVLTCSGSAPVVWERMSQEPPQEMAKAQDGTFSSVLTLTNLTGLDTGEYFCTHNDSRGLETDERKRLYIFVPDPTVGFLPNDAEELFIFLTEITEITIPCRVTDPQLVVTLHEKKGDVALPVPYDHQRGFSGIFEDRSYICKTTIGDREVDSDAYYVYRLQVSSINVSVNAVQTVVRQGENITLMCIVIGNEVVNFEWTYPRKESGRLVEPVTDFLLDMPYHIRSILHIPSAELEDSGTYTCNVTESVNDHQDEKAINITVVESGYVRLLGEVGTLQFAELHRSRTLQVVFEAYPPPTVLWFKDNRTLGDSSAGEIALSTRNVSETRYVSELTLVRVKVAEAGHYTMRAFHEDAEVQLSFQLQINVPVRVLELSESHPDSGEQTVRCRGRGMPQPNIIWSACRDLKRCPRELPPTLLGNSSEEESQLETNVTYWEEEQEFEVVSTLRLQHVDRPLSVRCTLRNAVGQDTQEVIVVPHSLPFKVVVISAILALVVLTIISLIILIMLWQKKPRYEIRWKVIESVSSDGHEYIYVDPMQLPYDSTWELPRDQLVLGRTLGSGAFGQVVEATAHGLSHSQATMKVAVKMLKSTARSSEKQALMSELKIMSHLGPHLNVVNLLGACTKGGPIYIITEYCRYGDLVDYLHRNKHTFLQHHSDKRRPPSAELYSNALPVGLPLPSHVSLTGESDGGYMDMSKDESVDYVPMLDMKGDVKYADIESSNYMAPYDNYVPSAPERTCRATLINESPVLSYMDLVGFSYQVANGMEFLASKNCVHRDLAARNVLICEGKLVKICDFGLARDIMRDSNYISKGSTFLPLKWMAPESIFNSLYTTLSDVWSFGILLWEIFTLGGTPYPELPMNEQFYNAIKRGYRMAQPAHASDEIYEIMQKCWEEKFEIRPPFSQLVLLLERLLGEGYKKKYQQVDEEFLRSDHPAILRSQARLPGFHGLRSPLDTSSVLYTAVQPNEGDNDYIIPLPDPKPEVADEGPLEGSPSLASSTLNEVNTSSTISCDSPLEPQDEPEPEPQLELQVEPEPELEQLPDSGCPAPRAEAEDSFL
- ASSAY_NOTES: Yeast growth assay, specificity profiling
- Format: cell-based
- Set-up: key: “−” indicates no growth restoration i.e. no activity against the particular kinase; “+”, “++”, and “+++” indicate activity detected by restoration of growth, classified into three categories of potency; “+”, “++”, and “+++” indicate activity detected by restoration of growth, classified into three categories of potency; “+”, “++”, and “+++” indicate activity detected by restoration of growth, classified into three categories of potency
- CONDITION_DETAILS: 7 concentrations between 0.2 and 100 μM
VALUE_KIND: PDGFRb growth restoration

Solved cases (5 shown):
| CHEMICAL_STRING | PDGFRb growth restoration |
| --- | --- |
| c1ccc(Nc2c(-c3ccccc3)nc3cnccn23)cc1 | − |
| Cc1nccn2c(Nc3cccc(F)c3)c(-c3ccccc3)nc12 | − |
| Clc1ccc(Nc2c(-c3ccccc3)nc3cnccn23)cc1 | − |
| Cc1nccn2c(Nc3ccccc3)c(-c3ccccc3)nc12 | − |
| Brc1cccc(Nc2c(-c3ccccc3)nc3cnccn23)c1 | − |

stdin: Item: "Cc1cccc(Nc2c(-c3ccccc3)nc3c(C)nccn23)c1" Test system: PDGFRb (Homo sapiens, UniProt P09619) Read-out: PDGFRb growth restoration Value: ?
stdout: −

stdin: Item: "Cc1nccn2c(Nc3cccc(Cl)c3)c(-c3ccccc3)nc12" Test system: PDGFRb (Homo sapiens, UniProt P09619) Read-out: PDGFRb growth restoration Value: ?
stdout: −

stdin: Item: "COc1cccc(-c2nc3cnccn3c2Nc2cccc(Cl)c2)c1" Test system: PDGFRb (Homo sapiens, UniProt P09619) Read-out: PDGFRb growth restoration Value: ?
stdout: −

stdin: Item: "Cc1nccn2c(Nc3ccc(F)c(F)c3)c(-c3ccccc3)nc12" Test system: PDGFRb (Homo sapiens, UniProt P09619) Read-out: PDGFRb growth restoration Value: ?
stdout: −

stdin: Item: "Clc1cccc(Nc2c(-c3ccccc3)nc3cnccn23)c1" Test system: PDGFRb (Homo sapiens, UniProt P09619) Read-out: PDGFRb growth restoration Value: ?
stdout: −

stdin: Item: "Cc1cccc(Nc2c(-c3ccccc3)nc3cnccn23)c1" Test system: PDGFRb (Homo sapiens, UniProt P09619) Read-out: PDGFRb growth restoration Value: ?
stdout: −
